The measured values listed here are drawn from ChEMBL document CHEMBL4145553.

system: Hs-578T; assay: Growth inhibition of human Hs 578T cells at 10 uM incubated for 48 hrs by sulforhodamine B assay relative to control; assay type: functional; details: values are per cent of control
Please note: growth, % of control at 10 µM exactly at 90% is 0.0. Only values below 90% get 1.0.

# TODO verify growth, % of control at 10 µM < 90% strictly for this compound: `CCS/C(Nc1ccccc1)=C(\C#N)C(=O)Nc1ccccc1`
0.0

What about this compound? `CCS/C(Nc1ccccc1)=C(\C#N)C(=O)N/N=C\c1ccc(Cl)cc1Cl`
1.0

What about this compound? `CCS/C(Nc1ccccc1)=C(\C#N)C(=O)N/N=C\c1ccco1`
0.0
